Listing: koff of selected binders
Biological target: T1, Human IL-23 (human, UniProt Q9NPF7 20-189; P29460 23-328)
T1 construct: Heterodimer of p40 and p19; For the crystal it was secreted from insect cells from a bi-cistronic construct; also called interleukin 23; human recombinant IL-23
T1 sequence (looked up) 1: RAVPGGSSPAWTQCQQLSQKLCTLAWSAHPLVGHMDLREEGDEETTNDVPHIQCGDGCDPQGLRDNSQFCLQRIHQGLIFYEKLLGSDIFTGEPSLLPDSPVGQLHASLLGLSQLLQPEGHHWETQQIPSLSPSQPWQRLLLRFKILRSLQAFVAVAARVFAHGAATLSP
T1 sequence (looked up) 2: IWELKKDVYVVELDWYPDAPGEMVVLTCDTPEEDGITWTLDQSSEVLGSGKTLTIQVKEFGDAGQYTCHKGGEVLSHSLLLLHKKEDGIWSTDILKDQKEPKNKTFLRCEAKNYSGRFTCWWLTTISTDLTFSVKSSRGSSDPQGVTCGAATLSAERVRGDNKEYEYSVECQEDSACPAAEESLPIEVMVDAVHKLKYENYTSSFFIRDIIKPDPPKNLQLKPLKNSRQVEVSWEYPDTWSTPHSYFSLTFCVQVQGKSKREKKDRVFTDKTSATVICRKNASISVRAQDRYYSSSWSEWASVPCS
Experiment: SPR (Biacore T100), Adnectin captured by anti-His mAb, IL-23 injected, 25 C
Answer format: numeric, s⁻¹ implied, no suffix.

Below, 9 binders whose answers are already recorded.
1. Anti-IL-23 Adnectin 1454F09 (designed binder, 10Fn3-based Adnectin expressed in E. coli followed by a HIS6 tag; Fn3 domain is positions 3-96 of the entry) MGVSDVPRDLEVVAATPTSLLISWDHNYSYRRYYRITYGETGGNSPVQEFTVPRHTDTATISGLKPGVDYTITVYAVTSSYKYDMQYSPISINYRTEIDKPSQHHHHHH    0.000928
2. Anti-IL-23 Adnectin 1454B05 (designed binder, 10Fn3-based Adnectin expressed in E. coli followed by a HIS6 tag; Fn3 domain is positions 3-96 of the entry) MGVSDVPRDLEVVAATPTSLLISWYHDYPYRRYYRITYGETGGNSPVQEFTVPKDEETATISGLKPGVDYTITVYAVTSSYKYDMQYSPISINYRTEIDKPSQHHHHHH    0.000677
3. Anti-IL-23 Adnectin 1454H11 (designed binder, 10Fn3-based Adnectin expressed in E. coli followed by a HIS6 tag; Fn3 domain is positions 3-96 of the entry) MGVSDVPRDLEVVAATPTSLLISWEHDYPYRRYYRITYGETGGNSPVQEFTVPREDSTATISGLKPGVDYTITVYAVTSSYKYDMQYSPISINYRTEIDKPSQHHHHHH    0.000227
4. Anti-IL-23 Adnectin 1454F07 (designed binder, 10Fn3-based Adnectin expressed in E. coli followed by a HIS6 tag; Fn3 domain is positions 3-96 of the entry) MGVSDVPRDLEVVAATPTSLLISWYHMYSYRRYYRITYGETGGNSPVQEFTVPRDVDTATISGLKPGVDYTITVYAVTSSYKYDMQYSPISINYRTEIDKPSQHHHHHH    0.000447
5. Anti-IL-23 Adnectin 1454E09 (designed binder, 10Fn3-based Adnectin expressed in E. coli followed by a HIS6 tag; Fn3 domain is positions 3-96 of the entry) MGVSDVPRDLEVVAATPTSLLISWMHDYPYRRYYRITYGETGGNSPVQEFTVPMEEDTATISGLKPGVDYTITVYAVTSSYKYDMQYSPISINYRTEIDKPSQHHHHHH    0.000569
6. Anti-IL-23 Adnectin 1454F05 (designed binder, 10Fn3-based Adnectin expressed in E. coli followed by a HIS6 tag; Fn3 domain is positions 3-96 of the entry) MGVSDVPRDLEVVAATPTSLLISWYMHYPYSRYYRITYGETGGNSPVQEFTVPKQHDTATISGLKPGVDYTITVYAVTSSYKYDMQYSPISINYRTEIDKPSQHHHHHH    0.000525
7. Anti-IL-23 Adnectin 1454B08 (designed binder, 10Fn3-based Adnectin expressed in E. coli followed by a HIS6 tag; Fn3 domain is positions 3-96 of the entry; also called Parent) MGVSDVPRDLEVVAATPTSLLISWEHDYPYRRYYRITYGETGGNSPVQEFTVPKDVDTATISGLKPGVDYTITVYAVTSSYKYDMQYSPISINYRTEIDKPSQHHHHHH    0.000409
8. Anti-IL-23 Adnectin 1241A05 (designed binder, 10Fn3-based Adnectin expressed in E. coli followed by a HIS6 tag; Fn3 domain is positions 3-96 of the entry; also called Clone 1241A05) MGVSDVPRDLEVVAATPTSLLISWNHNYSYYRYYRITYGETGGNSPVQEFTVPRGVATATISGLKPGVDYTITVYAVTSSYKYDMQYSPISINYRTEIDKPSQHHHHHH    0.000236
9. Anti-IL-23 Adnectin 1454C03 (designed binder, 10Fn3-based Adnectin expressed in E. coli followed by a HIS6 tag; Fn3 domain is positions 3-96 of the entry) MGVSDVPRDLEVVAATPTSLLISWDMYYPYSRYYRITYGETGGNSPVQEFTVPKEYDTATISGLKPGVDYTITVYAVTSSYKYDMQYSPISINYRTEIDKPSQHHHHHH    0.000468

Query binder follows.
In: # return recorded koff for entry Anti-IL-23 Adnectin 1454D02 (designed binder, 10Fn3-based Adnectin expressed in E. coli followed by a HIS6 tag (captured by anti-His mAb in SPR)) MGVSDVPRDLEVVAATPTSLLISWDHDYPYRRYYRITYGETGGNSPVQEFTVPRNINTATISGLKPGVDYTITVYAVTSSYKYDMQYSPISINYRTEIDKPSQHHHHHH
Out: 0.000438

Numbers sourced from patent US20130288372A1.
